# TARGET_SYSTEM: T1, Human CD24 (human, UniProt P25063 27-59, limits assumed)
# T1 chain (looked up): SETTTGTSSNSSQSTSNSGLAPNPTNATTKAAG
# METHOD_NOTES: SPR, second 1:1 binding column set

| BINDER | kon / M⁻¹ s⁻¹ |
| --- | --- |
| Antibody No 6, lead clone of 4451H (HC N35G; LC L33G) (antibody, V domains shown) VH: QVQLVQSGAEVKKPGASVKVSCKASGYDFTGYHMGWVRQAPGQGLEWMGEINPITSDKTFNQKFKSRVTMTRDTSISTAYMELSRLRSDDTAVYYCARRDYGTSLDYWGQGTTVTVSS VL: DIQLTQSPSFLSASVGDRVTITCRASKSISKYGAWYQQKPGKAPKLLIYAGSTLHSGIPSRFRGSGSGTEFTLTISSLQPEDFATYYCQQHNEYPITFGQGTKLEIK | 1.98e+06 |
